# credit: patent US8426437B2

Form field: pIC50 (one value per entry).
- TEST_SYSTEM: RET (Homo sapiens, UniProt P07949)
- Sequence (P07949 29-1114): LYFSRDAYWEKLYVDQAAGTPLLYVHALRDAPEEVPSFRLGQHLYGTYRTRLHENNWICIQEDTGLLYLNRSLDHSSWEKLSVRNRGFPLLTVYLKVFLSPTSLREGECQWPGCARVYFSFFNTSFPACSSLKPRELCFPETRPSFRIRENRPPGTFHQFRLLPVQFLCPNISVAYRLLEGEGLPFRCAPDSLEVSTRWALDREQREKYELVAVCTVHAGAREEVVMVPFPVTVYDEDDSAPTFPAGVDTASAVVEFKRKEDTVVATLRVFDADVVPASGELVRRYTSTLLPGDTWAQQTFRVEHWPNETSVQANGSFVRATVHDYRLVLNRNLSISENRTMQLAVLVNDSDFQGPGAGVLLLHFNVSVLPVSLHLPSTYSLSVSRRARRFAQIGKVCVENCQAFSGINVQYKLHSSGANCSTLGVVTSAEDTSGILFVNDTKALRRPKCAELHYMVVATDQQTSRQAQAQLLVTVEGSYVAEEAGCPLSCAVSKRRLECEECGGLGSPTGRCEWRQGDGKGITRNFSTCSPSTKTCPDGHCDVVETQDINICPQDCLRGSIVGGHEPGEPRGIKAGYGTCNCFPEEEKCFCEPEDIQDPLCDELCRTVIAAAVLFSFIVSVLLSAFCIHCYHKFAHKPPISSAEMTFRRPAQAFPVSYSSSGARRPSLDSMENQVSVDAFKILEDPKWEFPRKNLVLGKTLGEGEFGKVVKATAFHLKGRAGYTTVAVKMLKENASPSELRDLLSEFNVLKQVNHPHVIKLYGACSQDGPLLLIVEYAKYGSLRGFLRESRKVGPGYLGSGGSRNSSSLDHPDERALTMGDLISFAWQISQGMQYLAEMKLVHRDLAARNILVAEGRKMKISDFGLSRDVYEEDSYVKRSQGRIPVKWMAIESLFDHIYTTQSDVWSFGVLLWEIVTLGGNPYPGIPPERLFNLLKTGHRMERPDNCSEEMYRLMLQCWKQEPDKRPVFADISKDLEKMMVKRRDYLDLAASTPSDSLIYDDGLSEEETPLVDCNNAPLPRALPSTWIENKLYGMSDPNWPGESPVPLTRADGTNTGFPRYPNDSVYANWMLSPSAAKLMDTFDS
- METHOD_DESCRIPTION: Inhibition of RET kinase activity, recombinant RET method (Kinase-Glo)
- REPORTED_CONDITIONS: RET 2 μg/ml, poly-EY4 substrate, 20 μM ATP, two hours at 30° C.
pIC50: −log10 of the molar value.

SMILES_STR: CCOC(=O)c1c[nH]c2c(=O)[nH]c3ccc(-c4ccnc(Nc5nc6ccccc6[nH]5)n4)cc3c12
READOUT_TYPE: pIC50
RECORDED_VALUE: 5.00 to 6.00
//
SMILES_STR: CNC(=O)c1c[nH]c2c(=O)[nH]c3ccccc3c12
READOUT_TYPE: pIC50
RECORDED_VALUE: 4.00 to 5.00
//
SMILES_STR: CCCCOC(=O)c1c[nH]c2c(=O)[nH]c3ccc(S(=O)(=O)NC4CCNCC4)cc3c12
READOUT_TYPE: pIC50
RECORDED_VALUE: > 7.00

Enquiry: Name the recorded pIC50 of the item `CCOC(=O)c1c[nH]c2c(=O)[nH]c3ccc(-c4ccnc(N5CCN(c6ccccn6)CC5)n4)cc3c12` in your answer.
Return: 5.00 to 6.00

Enquiry: Output measured pIC50 for this item: `CCCOC(=O)c1c[nH]c2c(=O)[nH]c3ccc(S(=O)(=O)N(C)C4CN(C(c5ccccc5)c5ccccc5)C4)cc3c12`
Return: 6.00 to 7.00

Enquiry: Let me know recorded pIC50 for `CN(c1ccc(F)cc1)S(=O)(=O)c1ccc2[nH]c(=O)c3[nH]cc(C(=O)OCCCN)c3c2c1` , thanks.
Return: 4.00 to 5.00

Enquiry: Give the reported pIC50 for this compound. `CCCOC(=O)c1c[nH]c2c(=O)[nH]c3ccc(S(=O)(=O)N(C[C@@H]4CCCN4C)C4CC4)cc3c12`
Return: 6.00 to 7.00

Enquiry: Provide one value: measured pIC50 of `CCOC(=O)c1c[nH]c2c(=O)[nH]c3ccc(S(=O)(=O)Nc4cccc(C)c4)cc3c12`
Return: 6.00 to 7.00

Enquiry: Find the measured pIC50 of `COC(=O)c1c[nH]c2c(=O)[nH]c3ccc(S(=O)(=O)NC4CCCC4)cc3c12` and report it.
Return: 5.00 to 6.00

Enquiry: Fill in pIC50 for record `CCOC(=O)c1c[nH]c2c(=O)[nH]c3ccc(-c4csc(Nc5c(Cl)cccc5Cl)n4)cc3c12`
Return: 4.00 to 5.00

Enquiry: Please list pIC50 recorded for the compound `CCN(CC)CCOC(=O)c1c[nH]c2c(=O)[nH]c3ccc(F)cc3c12`
Return: 4.00 to 5.00

Enquiry: Find the measured pIC50 of `CCOC(=O)c1c[nH]c2c(=O)[nH]c3ccc(-c4ccccc4NC(=O)OC(C)(C)C)cc3c12` and report it.
Return: 4.00 to 5.00
